System: Aβ plaques on AD sections
ASSAY: Assay 1 (fluorescence based assay): direct staining of human Alzheimer's disease brain sections
Format: binding
Design: key: − (No); +/− (very weak); + (weak); ++ (good); +++ (strong)
ASSAY SETUP: staining intensity; compound 100 μM, frozen amygdala sections, AD Braak stage V-VI
Protocol: Direct Staining of Compounds of this Invention to Human Alzheimer's Disease Brain Sections 20 μm frozen sections from amygdala were purchased from an external provider (Tissue Solutions Ltd.). […] To reduce auto-fluorescence of the tissue, the sections were incubated in a solution of 0.1% Sudan Black (Sigma 199664) in 70% ethanol for 15 min at room temperature, followed by four washes with PBS and mounted under cover slips using ProLong Gold Antifade reagent (Invitrogen P36930). […]
OBSERVED PROPERTY: Staining of Aβ plaques on AD sections

Answered cases to consult:
{"MOLECULE SMILES": "CN1CCN(c2ccc3nc(-c4ccc(N5CC[C@@H](F)C5)nc4)sc3c2)C(=O)C1", "Staining of Aβ plaques on AD sections": "+"}
{"MOLECULE SMILES": "CNc1ccc(-c2ccc3cc(-c4ccc(F)nc4)sc3n2)cn1", "Staining of Aβ plaques on AD sections": "+++"}
{"MOLECULE SMILES": "CN(C)c1ccc(-c2ccc3cc(-c4ccc(N(C)C)nc4)sc3n2)cn1", "Staining of Aβ plaques on AD sections": "+"}
{"MOLECULE SMILES": "Fc1ncccc1-c1cc2ccc(-c3ccc(N4CCCC4)nc3)nc2s1", "Staining of Aβ plaques on AD sections": "+++"}
{"MOLECULE SMILES": "COc1ccc(C#Cc2ccc3cc(-c4cccnc4)sc3n2)cc1", "Staining of Aβ plaques on AD sections": "++"}

Q: Record "FCCOc1ccc(-c2cc3ccc(Nc4ccc5c(c4)OCCO5)nc3s2)cc1" : what is its Staining of Aβ plaques on AD sections with Aβ plaques on AD sections?
Ans: ++

Q: Checklist item: Staining of Aβ plaques on AD sections tested on Aβ plaques on AD sections, entry "OCCOC1CCN(c2ccc3cc(-c4cccnc4)sc3n2)CC1" , value?
Ans: ++

Q: Fill in the recorded Staining of Aβ plaques on AD sections for this compound, with Aβ plaques on AD sections as test system: "c1ccc(-c2cc3ccc(-c4ccc(N5CCCC5)nc4)nc3s2)nc1"
Ans: ++

Q: Provide the documented Staining of Aβ plaques on AD sections with Aβ plaques on AD sections as the system for "Cn1cc(-c2ccc3sc(-c4ccc(N5CC[C@@H](F)C5)nc4)nc3c2)cn1"
Ans: −

* * *

TARGET UNDER TEST: aSyn aggregates on PD sections (Homo sapiens)
Construct: 20 μm frozen sections from amygdala were purchased from an external provider (Tissue Solutions Ltd.); tissue Tissue Solutions Ltd; host or cells: human PD amygdala, frozen sections, Braak stage V-VI
ASSAY: Assay 1 (fluorescence based assay): direct staining of human Parkinson's disease brain sections
Assay type: binding
Design: key: − (No); +/− (very weak); + (weak); ++ (good); +++ (strong)
ASSAY SETUP: staining intensity; compound 100 μM, frozen amygdala sections, PD Braak stage V-VI
OBSERVED PROPERTY: Staining of aSyn aggregates on PD sections

{"MOLECULE": "F[C@@H]1CCN(c2ccc(-c3ccc4cc(-c5cccnc5)sc4n3)cn2)C1 [Example 45]", "RESULT": "+"}
{"MOLECULE": "F[C@@H]1CCN(c2ccc(-c3ccc4cc(-c5cn[nH]c5)sc4n3)cn2)C1 [Example 114]", "RESULT": "+++"}
{"MOLECULE": "c1cncc(-c2ccc3nc(-c4ccc(N5CCCC5)nc4)sc3n2)c1 [Example 38]", "RESULT": "+++"}
{"MOLECULE": "c1cncc(-c2cnc3sc(-c4ccc(N5CCCC5)nc4)nc3c2)c1 [Example 23]", "RESULT": "++"}

Moving on to the next molecule.
Q: Value wanted: Staining of aSyn aggregates on PD sections (aSyn aggregates on PD sections (Homo sapiens)) of entry Fc1cncc(-c2ccc3sc(-c4ccc(N5CCCC5)nc4)cc3n2)c1 [Example 28]
Ans: +
